SGF values by entry
- test.description: Stability in Simulated Gastric Fluid (SGF)
- Format: in vitro ADME
- Parameters: key: % parent compound remaining relative to 0-minute sample
- measurement.conditions: % @ 1 h (remaining) in simulated gastric fluid
measured.property: SGF (% @ 1 h)

{"columns": ["molecule", "observed"],
 "data": [
  ["C=CCCN(C)C(=O)OCSc1nc(=O)c2c(ccn2COC(=O)N(C)CCC=C)n1CCOC(C)C.O=C(O)C(F)(F)F [Example 180]", 99],
  ["CC(C)OCCn1c(=S)[nH]c(=O)c2c1ccn2COC(=O)c1ccccc1.O=C(O)C(F)(F)F [Example 157]", 96],
  ["CCCCN(C)C(=O)OCSc1nc(=O)c2[nH]ccc2n1CCOC(C)C.O=C(O)C(F)(F)F [Example 160]", 92],
  ["CC(C)OCCn1c(SCOC(=O)N(C)Cc2ccccc2)nc(=O)c2[nH]ccc21.O=C(O)C(F)(F)F [Example 173]", 95]
]}
